The reported measurements were obtained from patent US20200247894A1.

Biological target: T1, human IL2Rγ (endogenously expressed on cells) (human, UniProt P31785 23-369)
T1 sequence (looked up): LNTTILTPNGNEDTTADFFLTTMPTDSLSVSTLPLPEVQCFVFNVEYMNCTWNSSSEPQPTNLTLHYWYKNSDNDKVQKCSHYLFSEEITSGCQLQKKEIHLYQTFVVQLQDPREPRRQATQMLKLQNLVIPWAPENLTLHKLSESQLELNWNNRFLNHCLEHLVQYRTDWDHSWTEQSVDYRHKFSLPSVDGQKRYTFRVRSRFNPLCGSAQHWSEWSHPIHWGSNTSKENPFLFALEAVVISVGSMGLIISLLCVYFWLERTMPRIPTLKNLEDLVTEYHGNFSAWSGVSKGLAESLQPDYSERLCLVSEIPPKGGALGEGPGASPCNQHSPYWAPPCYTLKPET
Test: cell-based or functional assay
ENDPOINT: Max Inhibition (%); IL-7 50 pM; NK92/hIL7R/STAT3-luc

{"columns": ["BINDER", "VAL"],
 "data": [
  ["H4H12886P (antibody, human IgG4 S228P, kappa, V domains shown, human IgG4) VH: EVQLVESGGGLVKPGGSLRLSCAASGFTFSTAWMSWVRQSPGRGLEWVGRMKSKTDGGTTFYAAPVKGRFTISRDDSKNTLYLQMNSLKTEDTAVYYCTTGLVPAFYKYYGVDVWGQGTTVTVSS VL: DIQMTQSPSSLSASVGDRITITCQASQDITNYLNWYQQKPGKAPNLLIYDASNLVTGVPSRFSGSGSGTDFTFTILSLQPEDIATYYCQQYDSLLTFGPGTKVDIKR", "81%"],
  ["H4H12889P (antibody, human IgG4 S228P, kappa, V domains shown, human IgG4; also called REGN7257) VH: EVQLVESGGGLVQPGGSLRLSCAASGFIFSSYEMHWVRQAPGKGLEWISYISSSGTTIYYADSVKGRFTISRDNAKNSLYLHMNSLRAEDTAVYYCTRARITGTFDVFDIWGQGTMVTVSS VL: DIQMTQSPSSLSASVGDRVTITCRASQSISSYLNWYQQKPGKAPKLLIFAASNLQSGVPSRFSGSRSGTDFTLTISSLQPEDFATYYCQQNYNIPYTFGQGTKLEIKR", "100%"],
  ["H4H12890P (antibody, human IgG4 S228P, kappa, V domains shown, human IgG4) VH: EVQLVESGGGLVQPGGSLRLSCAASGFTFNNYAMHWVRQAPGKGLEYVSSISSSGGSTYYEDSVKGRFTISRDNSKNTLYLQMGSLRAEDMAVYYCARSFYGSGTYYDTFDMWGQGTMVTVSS VL: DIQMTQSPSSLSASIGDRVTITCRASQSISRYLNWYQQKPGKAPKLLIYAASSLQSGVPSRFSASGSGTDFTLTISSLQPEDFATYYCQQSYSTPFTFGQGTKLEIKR", "66%"]
]}
